Molecular target: USP1/UAF1 (Homo sapiens (Human), UniProt O94782)
Sequence (O94782 whole entry): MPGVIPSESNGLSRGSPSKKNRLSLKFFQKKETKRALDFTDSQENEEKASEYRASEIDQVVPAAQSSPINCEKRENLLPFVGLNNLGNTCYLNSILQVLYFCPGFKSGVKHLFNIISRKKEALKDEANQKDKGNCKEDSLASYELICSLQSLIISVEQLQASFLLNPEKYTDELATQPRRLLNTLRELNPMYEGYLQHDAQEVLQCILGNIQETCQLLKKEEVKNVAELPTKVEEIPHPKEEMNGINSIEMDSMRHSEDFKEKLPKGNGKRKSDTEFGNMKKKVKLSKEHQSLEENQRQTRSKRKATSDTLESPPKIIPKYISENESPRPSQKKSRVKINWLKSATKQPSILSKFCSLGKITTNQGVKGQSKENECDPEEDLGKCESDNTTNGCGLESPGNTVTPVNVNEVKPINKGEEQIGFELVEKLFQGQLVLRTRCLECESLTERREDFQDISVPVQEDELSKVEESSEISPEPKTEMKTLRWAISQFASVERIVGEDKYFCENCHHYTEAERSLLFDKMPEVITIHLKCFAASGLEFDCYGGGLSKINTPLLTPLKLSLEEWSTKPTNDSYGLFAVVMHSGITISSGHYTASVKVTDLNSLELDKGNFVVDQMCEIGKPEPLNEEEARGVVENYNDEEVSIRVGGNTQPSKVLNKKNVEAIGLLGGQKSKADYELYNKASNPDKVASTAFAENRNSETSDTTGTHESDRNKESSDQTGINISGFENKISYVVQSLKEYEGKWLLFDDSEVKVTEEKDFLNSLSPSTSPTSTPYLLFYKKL
Sequence (Q8TAF3 whole entry partner): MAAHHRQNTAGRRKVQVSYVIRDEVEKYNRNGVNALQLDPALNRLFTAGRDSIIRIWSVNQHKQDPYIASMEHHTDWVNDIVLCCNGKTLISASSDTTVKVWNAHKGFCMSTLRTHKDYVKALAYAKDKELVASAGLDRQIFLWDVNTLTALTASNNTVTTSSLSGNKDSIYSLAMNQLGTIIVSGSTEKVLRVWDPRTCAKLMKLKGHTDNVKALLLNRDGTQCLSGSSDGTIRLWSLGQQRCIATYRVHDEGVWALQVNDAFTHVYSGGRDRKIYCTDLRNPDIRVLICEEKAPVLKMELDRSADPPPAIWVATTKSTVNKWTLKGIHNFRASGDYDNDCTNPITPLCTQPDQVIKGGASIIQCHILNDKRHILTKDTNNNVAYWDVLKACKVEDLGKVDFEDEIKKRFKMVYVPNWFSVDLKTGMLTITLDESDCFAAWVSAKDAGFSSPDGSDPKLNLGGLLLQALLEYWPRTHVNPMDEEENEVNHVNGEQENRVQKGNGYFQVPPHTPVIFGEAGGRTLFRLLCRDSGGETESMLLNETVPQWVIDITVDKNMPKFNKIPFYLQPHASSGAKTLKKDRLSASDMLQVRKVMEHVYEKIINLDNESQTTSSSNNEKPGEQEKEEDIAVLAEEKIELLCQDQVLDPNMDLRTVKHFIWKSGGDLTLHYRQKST
Assay: qHTS assay for USP1/UAF1 activity (fluorometric, ubiquitin-rhodamine110)
Assay type: biochemical
Conditions: USP1/UAF1 inhibition, Table 3
pIC50: −log10 of the molar value.
observable: pIC50

Here is how some molecules turned out for pIC50.
molecule	target.system	pIC50
CC(C)c1ccccc1-c1nc(NCc2ccc(-c3ccccc3)cc2)c2cccn2n1 [Compound 54]	USP1/UAF1 (Homo sapiens (Human), UniProt O94782)	6.66
CSc1cnc(-c2ccccc2C(C)C)nc1NCc1ccc(-c2ccccc2)cc1 [Compound 64]	USP1/UAF1 (Homo sapiens (Human), UniProt O94782)	7.07
CC(C)c1ccccc1C1=NC2CCCC2C(NCc2ccc(-c3ccccc3)cc2)=N1 (centres unmarked) [Compound 56]	USP1/UAF1 (Homo sapiens (Human), UniProt O94782)	6.85
CC(C)c1ccccc1C1=NC2C=COC2C(NCc2ccc(-c3ccccc3)cc2)=N1 (centres unmarked) [Compound 57]	USP1/UAF1 (Homo sapiens (Human), UniProt O94782)	6.82
CC(C)c1ccccc1-c1nc(NCc2ccc(-c3ccccc3)cc2)c2ccsc2n1 [Compound 51]	USP1/UAF1 (Homo sapiens (Human), UniProt O94782)	6.62

[a] CC(C)c1ccccc1C1=NC2CNCCC2C(NCc2ccc(-c3ccccc3)cc2)=N1 (centres unmarked) [Compound 55]
[b] CC(C)c1ccccc1-c1ncc(N)c(NCc2ccc(-c3ccccc3)cc2)n1 [Compound 62]
[c] CC(C)c1ccccc1-c1nc(NCc2ccc(-c3ccccc3)cc2)c2sccc2n1 [Compound 50]
Problem: Order the records so the highest pIC50 appears first and the lowest last. Please reply with the labels ordered as requested. Many thanks.
Result: c, b, a
